Source: PubChem BioAssay

# inhibition per entry
- experiment.summary: human hepatoma cell viability loss – ATP luminescence, cytotoxicity control for P. falciparum antimalarial project, primary screen (AID 2303);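 note: 0% = DMSO wells and 100% = digitonin-killed cells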
- condition.label: HepG2 viability, 24-48 h, at 10 µM, active compounds read high
Could you give me the number in %? Just the number is fine.

* CCOC(=O)c1cnc2c(OC)cc(OC)c(Cl)c2c1Nc1cccc(C)c1 | 0
* COc1cc(NC(=O)/C=C/c2cc(F)cc(F)c2F)cc(OCCN2CCC(O)(c3ccccc3)CC2)c1 | 54
* CCc1c(C(=O)NC2CCC(N3CCC(c4ccccc4OC)CC3)CC2)[nH]c2ccc(Br)cc12 (stereo not given) | 85
* COc1ccc(NC(=O)[C@H](CC(C)C)Nc2cc(C)nc(NCC3CCCCC3)n2)cc1 | 7
* Cc1cc(Nc2cc(Cl)cc(Cl)c2)nc(N)n1 | -12
* O=C(Nc1cccc2ccccc12)N1CCC(NS(=O)(=O)c2cccc(C(F)(F)F)c2)CC1 | -5
* Nc1nc2c(c(=O)[nH]1)-c1cccc(Br)c1CC2 | 66
* Cc1cc(NN=CC=Cc2ccccc2)c2ccccc2n1 | 19
* Cn1nccc1C(=O)NCCNCc1ccc(-c2cccc(-c3nc4ccccc4[nH]3)c2)cc1 | 35

# context switch: different compound, same inhibition
Request: Quick check: inhibition of COc1c(C2CCN(CCCCNC(=O)c3oc(-c4ccc(Cl)cc4)cc3CO)CC2)ccc2c1CCCC2 ?
Response: 80

* * *

# inhibition per entry
- assayed.system: L-lactate dehydrogenase (Plasmodium falciparum (isolate CDC / Honduras))
- experiment.summary: PfLDH activity inhibition – cell lysate, 3D7 strain, counter-screen for P. falciparum growth inhibition project (AID 2304);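 note: 0% = vehicle and 100% = reference inhibitor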
- condition.label: P. falciparum 3D7 crude extract, LDH APAD/NBT absorbance; at 2 µM; active compounds read high
Could you give me the number in %? Just the number is fine.

Solved entries:
* CN(C)c1cccc2c1nc(-c1ccc3c(c1)CCO3)n2CCNCc1ccccc1 | 0
* Cc1cccc(N2C(N)=NC(N)=NC2(C)C)c1C | -6
* NC1CCN(c2cnn(Cc3cccc(NC(=O)Nc4ccc(-c5ccccc5)cc4)c3)c(=O)c2Cl)CC1 | -3
* CCCc1cc(NCC)nc(Nc2ccc(C)cc2)n1 | -1
* Clc1ccc2c(NCCc3ccccc3)ccnc2c1 | -3

Request: Quick check: inhibition of CNCc1ccc2nc(-c3coc(Cc4cc(Cl)ccc4OCC(C)C)n3)[nH]c2c1 ?
Response: 2

Request: Next compound up: COc1ccc(C2CC(c3ccccc3O)=NN2C(=O)c2ccco2)cc1OC (stereo not given)
Response: 1

Request: Next compound up: Cc1ccc(S(=O)(=O)n2cc(-c3ccnc(N)c3)c3cc(Br)cnc32)cc1
Response: 1

Request: Next compound up: CC1(C)CN(CCC2CCC(NC(=O)/C=C/c3ccc(F)cc3F)CC2)Cc2ccc(C#N)cc21 (stereo not given)
Response: -6

Request: Next compound up: OCCN1CCN(Cc2ccc(-c3cccc(-c4nc5ccc(C(F)(F)F)cc5[nH]4)c3)cc2)CC1
Response: 0

Request: Next compound up: CC(C)(C)c1nn(-c2ccccc2)c2[nH]c(=O)c(CNC3CCCCC3)cc12
Response: 3

Request: Next compound up: CC(C)(C)C1CC(=O)C[C@@H]2C(=O)N(C3CCCCC3)C(=O)[C@H]12 (stereo not given in full)
Response: -2

Request: Next compound up: CC1(C)N=C(N)N=C(N)N1OCc1ccc2ccccc2c1
Response: -9

Request: Next compound up: Cc1cccc2[nH]c(-c3ccc(-c4cccc(CNCCNC(=O)c5ccnn5C)c4)cc3)nc12
Response: -4

Request: Next compound up: O=C(Nc1ccc(Cn2ncc(N3CCCNCC3)c(Cl)c2=O)cc1)Nc1ccc(SC(F)(F)F)cc1
Response: 4

* * *

- experiment.summary: human hepatoma cell viability loss – ATP luminescence, cytotoxicity control for P. falciparum antimalarial project, primary screen (AID 2303);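 note: 0% = DMSO wells and 100% = digitonin-killed cells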
- condition.label: HepG2 viability, 24-48 h, at 10 µM, active compounds read high
Consider the cut-off 10%. If the recorded inhibition is strictly smaller, the label is condition met; if not, the label is condition not met.

Would you please look over these solved cases?
• CCC[C@@H]([C@@H](CC1CCCCC1)C(=O)N[C@H](C(=O)Nc1nccs1)C(C)(C)SCCNC(=O)OCC)N(O)C=O = condition not met
• C=CCOC(=O)N1CCC(CNCc2cccc(-c3ccc(-c4nc5c(C)cccc5[nH]4)cc3)c2)C1 (configuration not stated) = condition not met

Request: Say whether its inhibition is strictly beneath 10%. Entry: Cc1cc(N(C)C2CCN(C)C2)nc(Nc2ccccc2Cl)n1 (configuration not stated)
Response: condition met

Request: Next compound up: NC(N)=Nc1ccc(OCCCCCOc2ccc(N=C(N)N)cc2)cc1
Response: condition not met

Request: Next compound up: CC(C)NC(C)(C)CN(Cc1ccc(-c2ccc(C(F)(F)F)cc2)cc1)C(=O)Cn1c(CCc2cccc(F)c2F)nc(=O)c2ccccc21
Response: condition not met

* * *

- assayed.system: L-lactate dehydrogenase (Plasmodium falciparum (isolate CDC / Honduras))
- experiment.summary: PfLDH activity inhibition – cell lysate, 3D7 strain, counter-screen for P. falciparum growth inhibition project (AID 2304);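 note: 0% = vehicle and 100% = reference inhibitor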
- condition.label: P. falciparum 3D7 crude extract, LDH APAD/NBT absorbance; at 2 µM; active compounds read high
observable: inhibition (%)
Could you give me the number in %? Just the number is fine.

* COc1ccc(C2SCC(=O)N2CCc2ccc(OC)c(OC)c2)cc1 (stereo unspecified) | 1
* OCC1CCN(Cc2ccc(-c3ccc(-c4nc5ccccc5[nH]4)cc3)cc2)CC1 | 1
* O=C(Nc1ccc(CN2CCCCC2)cc1)c1ccc(COc2ccc([N+](=O)[O-])cc2)o1 | -1

Request: Quick check: inhibition of CCN(CCCN1CCCCC1)c1cc(C)nc(Nc2ccc(C)c(Cl)c2)n1 ?
Response: -7

Request: Next compound up: O=C(Cc1cccs1)NC(CCCN1CCC(Oc2cccc(Cl)c2)CC1)c1ccc(Cl)c(Cl)c1 (stereo unspecified)
Response: 3

Request: Next compound up: COc1cc2[nH]c(-c3ccc(O)cc3)c(C)c(=O)c2c(OC)c1OC
Response: 0

* * *

- assayed.system: L-lactate dehydrogenase (Plasmodium falciparum (isolate CDC / Honduras))
- experiment.summary: PfLDH activity inhibition – cell lysate, 3D7 strain, counter-screen for P. falciparum growth inhibition project (AID 2304);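 note: 0% = vehicle and 100% = reference inhibitor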
- condition.label: P. falciparum 3D7 crude extract, LDH APAD/NBT absorbance; at 2 µM; active compounds read high
observable: inhibition (%)
Could you give me the number in %? Just the number is fine.

Solved entries:
• CCc1ccccc1N=C1c2c(cccc2[N+](=O)[O-])C(=O)C1C(C)=O (configuration not stated) = 4
• CCCOc1ccc(-c2nonc2NC(=O)c2cccc(OC)c2)cc1OCCC = 0
• CCN(CC)C(=NCCCCCCN=C(/N=C(\N)Nc1ccc(Cl)c(Cl)c1)N(CC)CC)/N=C(\N)Nc1ccc(Cl)c(Cl)c1 = -3
• Oc1cc(Nc2ccnc3cc(-c4ccc(CN5CCCCC5)o4)c(Cl)cc23)c(Cl)cc1F = -5

Request: Please state recorded inhibition (tested on L-lactate dehydrogenase (Plasmodium falciparum (isolate CDC / Honduras))) of CCN(CC(C)O)C(=O)c1ccc(-c2cccc(-c3nc4c(C)cccc4[nH]3)c2)cc1 (configuration not stated)
Response: -2

* * *

- experiment.summary: human hepatoma cell viability loss – ATP luminescence, cytotoxicity control for P. falciparum antimalarial project, primary screen (AID 2303);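 note: 0% = DMSO wells and 100% = digitonin-killed cells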
- condition.label: HepG2 viability, 24-48 h, at 10 µM, active compounds read high
observable: inhibition (%)
Could you give me the number in %? Just the number is fine.

- Cc1cccc2[nH]c(-c3ccc(-c4ccc(NC(=O)Nc5ccsc5)cc4)cc3)nc12: 49
- Cn1cnc(CCNC(=O)c2cccc(-c3cccc(-c4nc5ccc(C(F)(F)F)cc5[nH]4)c3)c2)c1: 37

Request: Quick check: inhibition of NC(=O)c1cccc(C(=O)Nc2cccc(-c3cccc(-c4nc5ccc(F)cc5[nH]4)c3)c2)c1 ?
Response: 47

Request: Next molecule up: Cc1cc(C(F)(F)F)cc(-n2ncc(-c3ccc(C(=O)NCc4ccccc4N)cc3)c2N)n1
Response: 10

Request: Next molecule up: COc1cc2c(cc1OC)CC(NCCCCCCNCCc1ccc(Cl)cc1)CC2 (stereo unspecified)
Response: 50

Request: Next molecule up: Fc1ccc(CNc2ncc(-c3ccsc3)c(-c3nccs3)n2)cc1
Response: 7

Request: Next molecule up: CN(C)c1ccc(-c2ccc(C(=O)NC3CCN(Cc4ccccc4F)CC3)s2)cc1
Response: 30

* * *

- experiment.summary: antimalarial activity against Dd2 strain (AID 2302);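 note: 0% = DMSO untreated growth and 100% = chloroquine plus artemisinin killed control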
- condition.label: P. falciparum Dd2 in RBCs, LDH growth readout, 72 h; at 2 µM
The source made the active and inactive calls.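 Rule for the calls: active = growth inhibition above 50% at the single 2 µM test dose, taken to imply half-maximal potency below 2 µM; inactive = the rest.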
Give one outcome, nothing more. List: active, inactive

• COCn1ccc2c3c(N)nc(N)nc3ccc21 = inactive
• CC1(C)N=C(N)N=C(N)N1OCC=Cc1ccccc1 = active
• COC(=O)C(Cc1ccccc1)C(CSCc1ccc(OC)cc1)C(=O)N[C@@H](C(=O)OC(C)(C)C)c1ccc(C(C)(C)C)cc1 (stereo not given in full) = inactive
• COc1ccc2ncc(F)c(CCN3C[C@H](CNCc4ccc5c(n4)NC(=O)CS5)[C@H](O)C3)c2c1 = inactive

Kindly review the next compound as well.
Request: What is the recorded call for this compound in the test? O=S(=O)(/C=C/c1ccccc1)N(Cc1ccc(-c2ccc(CNCCc3ccccn3)cc2)cc1)CC1CCCCN1 (stereo not given)
Response: active
